# assay.target: HIV-1 RT (Human immunodeficiency virus type 1 group M subtype B)
# experimental.details: HIV-1 reverse transcriptase assay with homopolymeric template/primers
# Format: biochemical
# measurement.conditions: IC50 Wild-type HIV-1 RT, Table 8, wild-type RT
measurement.kind: IC50 (µM)
Reply with just the number (in µM).

Tell me measured IC50 for Nc1ncnc2c1ncn2C/C=C\COC(C(=O)O)P(=O)(O)O (stereo not shown) [Compound 6k] please.
531

Write down IC50 measured for item Cc1cn(C/C=C\COC(C(=O)O)P(=O)(O)O)c(=O)[nH]c1=O (stereo not shown) [Compound 6g]
320

Report IC50, nothing else, for this compound: Nc1ccn(C/C=C\COC(C(=O)O)P(=O)(O)O)c(=O)n1 (stereo not shown) [Compound 6m]
318
